system: Canis familiaris; assay: Saluretic property was estimated by the excretion of Na+ in dog administered intravenously; microequiv of Na+/min at 5 mg/kg iv stat, 600-799; type: ADME, organism-based, Canis lupus familiaris; design: dose 5 mg/kg, route intravenous; details: in vivo
attribute_measured: Saluretic potency (u equiv min-1)
Numeric answer only, unit u equiv min-1 assumed.

input: // lookup Saluretic potency for CCCCNCc1cc(C(C)(C)C)cc(I)c1O.Cl
output: 600

* * *

Saluretic potency overview
test system: Rattus norvegicus; assay: Saluretic property (excretion of Na+ in rat after PO dosing); assay type: ADME, organism-based; conditions: in vivo

Cl.NCc1c(O)c(Cl)cc(Cl)c1Cl
2.4 u equiv
CC(C)(C)c1cc(I)c(OS(=O)(=O)c2ccccc2)c(CN)c1.Cl
1.8 u equiv
CC(C)(C)c1cc(Cl)c(O)c(C[n+]2ccccc2)c1.[Cl-]
< 0.2 u equiv
CC(C)(C)c1cc(I)c(O)c(CNC2=NCCN2)c1
< 0.2 u equiv
O=CNCc1c(O)c(Cl)cc(Cl)c1Cl
< 0.2 u equiv
CN1CCN(Cc2cc(C(C)(C)C)cc(Cl)c2O)CC1.Cl
< 0.2 u equiv

input: Suppose we examine the compound CC(C)(C)c1cc(I)c(O)c(CNC2CCCCC2)c1.Cl ; what Saluretic potency value has been reported?
output: < 0.2 u equiv

input: GET /values?readout=Saluretic potency&item= CC(C)(C)c1cc(I)c(O)c(C[N+](C)(C)C)c1.[I-]
output: 0.2 u equiv

input: For CC(C)(C)OC(=O)NCc1cc(C(C)(C)C)cc(I)c1O , what is its reported Saluretic potency?
output: < 0.2 u equiv

input: So what's the measured Saluretic potency for this one? CC(C)(C)c1cc(Cl)c(O)c(/C=N/N=C(/N)S)c1
output: < 0.2 u equiv

input: Saluretic potency lookup needed for NCC(=O)NCc1c(O)c(Cl)cc(Cl)c1Cl , thanks.
output: < 0.2 u equiv min-1

* * *

test system: Rattus norvegicus; test: Saluretic property was estimated by the excretion of Na+ in rat administered orally; microequiv of Na+ at 5 mg/kg […]; type: ADME, organism-based; parameters: dose 5 mg/kg; conditions: in vivo
attribute_measured: log10(Saluretic potency) (log10 of the value in u equiv)
Remember, log10 of Saluretic potency, in u equiv.

Solved cases below.
CC(C)(C)c1cc(I)c(O)c(CNCCN)c1.Cl
-0.52
CC(C)(C)c1cc(Cl)c(O)c(CN)c1.Cl
0.56

input: Please give the measured log10(Saluretic potency) for this molecule: CC(C)(C)c1cc(I)c(O)c(CN)c1.Cl
output: 0.56

input: Could you share which log10(Saluretic potency) value was measured for CN(C)S(=O)(=O)Oc1c(I)cc(C(C)(C)C)cc1CN.Cl ?
output: -0.40

input: Any idea what log10(Saluretic potency) was measured for O=C(NCc1c(O)c(Cl)cc(Cl)c1Cl)C(F)(F)F ?
output: -0.40

input: Any idea what its log10(Saluretic potency) is? The molecule is CNCc1cc(C(C)(C)C)cc(I)c1O
output: 0.41

input: Any idea what its log10(Saluretic potency) is? The molecule is CC(C)(C)c1cc(I)c(OS(=O)(=O)O)c(CN)c1
output: -0.30

input: Any idea what log10(Saluretic potency) was measured for CC(C)(C)c1cc(I)c(OS(=O)(=O)c2ccccc2)c(CN)c1.Cl ?
output: -0.40
